Reference for the values: patent US9120762B2

Assay: Pharmacokinetics assay in rats
Type: in vivo, SD rats
Conditions: both sexes, rat, in vivo, po; SD rats, intragastric, 50 mg/Kg (as free acid); read-out: Mean Residence Time MRT
VALUE TYPE: MRT (h)
Quick reminder: number only, in h, skip the unit.

CHEMICAL STRING	UNIT NAME	MRT
CC1=NN(c2ccc3c(c2)CCC3)C(=O)/C1=N\Nc1cccc(-c2cccc(C(=O)O)c2)c1O.CCNCC.CCNCC	h	11.1
CC1=NN(c2ccc3c(c2)CCC3)C(=O)/C1=N\Nc1cccc(-c2csc(C(=O)O)c2)c1O.CCNCC.CCNCC	h	7.59

Attention now shifts to the item below.
Look up and report measured MRT for this entry: `CC1=NN(c2ccc3c(c2)CCC3)C(=O)/C1=N\Nc1cccc(-c2ccc(C(=O)O)o2)c1O.CCNCC.CCNCC` 14
